# system: Adrenergic receptor beta (Homo sapiens, UniProt P08588+P07550+P13945)
# assay-text: In vitro blocking activity against beta adrenergic receptor, isolated from guinea pig atria
# Type: protein assay
Measured pA2 accompanies every entry in the list below.
assay-readout: pA2

> print(dat)
                                    molecule  result
 1  COC(=O)c1cc(C(O)CN2CCN(C(=O)c3ccco3)CC2)ccc1O.Cl (stereo not given)     < 5
 2  NC(=O)c1cc(C(O)CN2CCN(C(=O)c3ccco3)CC2)ccc1O (stereo not given)     < 5
 3  CCOc1ccc(C(O)CN2CCN(c3ccccc3)CC2)cc1C(N)=O.Cl (stereo not given)    5.27
 4  Cl.NC(=O)c1cc(C(O)CN2CCC(n3c(O)nc4ccccc43)CC2)ccc1O (stereo not given)    5.45
 5  NC(=O)c1cc(C(O)CNCC2COc3ccccc3O2)ccc1O (stereo not given)    5.84
 6  CC(CCc1ccc2c(c1)OCO2)NCC(O)c1ccc(O)c(C(=O)O)c1.Cl (stereo not given)     5.1
 7  CC(C)(CCc1ccc2c(c1)OCO2)NCC(O)c1ccc(O)c(C(N)=O)c1.Cl (stereo not given)    7.15
 8  CC(CCc1ccc2c(c1)OCO2)NCC(O)c1ccc(O)c(C(=O)N(C)C)c1.Cl (stereo not given)    7.21
 9  Cc1ccccc1N1CCN(CC(O)c2ccc(O)c(C(N)=O)c2)CC1.Cl.Cl (stereo not given)     6.7
10  CNC(=O)c1cc(C(O)CN2CCN(c3ccc(OC)cc3)CC2)ccc1O.Cl (stereo not given)    5.17
11  COC(=O)c1cc(C(O)CNC(C)CCc2ccc3c(c2)OCO3)ccc1O.Cl (stereo not given)    7.62
12  CC(CCc1ccc2c(c1)OCO2)NCC(O)c1ccc(O)c(C(N)=O)c1.Cl (stereo not given) [MEDROXALOL HYDROCHLORIDE]    7.82
13  NC(=O)c1cc(C(O)CN2CCN(c3ccc(Cl)cc3)CC2)ccc1O (stereo not given)    6.17
14  COC(=O)c1cc(C(O)CN2CCN(c3ccccc3OC)CC2)ccc1OC.Cl (stereo not given)    6.41
15  COc1ccc(N2CCN(CC(O)c3ccc(O)c(C(N)=O)c3)CC2)cc1.Cl.Cl (stereo not given)    5.84

====

Measured Ratio accompanies every entry in the list below.
# Species on record: Oryctolagus cuniculus
# assay-text: Ratio of pA2 for beta-adrenergic receptor to that of alpha-adrenergic receptor
assay-readout: Ratio

> print(dat)
                                   compound  value.relation.sign  number
1  CCNC(=O)c1cc(C(O)CN2CCC(n3c(O)nc4ccccc43)CC2)ccc1O.Cl (centres undefined)                    <    0.06
2  COc1ccc(C(O)CNC(C)CCc2ccc3c(c2)OCO3)cc1C(N)=O.Cl (centres undefined)                    >    2090
3  CCNC(=O)c1cc(C(O)CNC(C)CCc2ccc3c(c2)OCO3)ccc1O.Cl (centres undefined)                    =     3.2
4  CNC(=O)c1cc(C(O)CN2CCN(c3ccc(OC)cc3)CC2)ccc1O.Cl (centres undefined)                    =     0.2
5  NC(=O)c1cc(C(O)CNCC2COc3ccccc3O2)ccc1O (centres undefined)                    =     0.4
6  COc1ccc(C(O)CN2CCN(c3ccccc3OC)CC2)cc1C(N)=O.Cl (centres undefined)                    =    0.04
7  CC(CCc1ccc2c(c1)OCO2)NCC(O)c1ccc(O)c(C(=O)NCC(C)(C)C)c1.Cl (centres undefined)                    =     0.8
8  CC(CCc1ccc2c(c1)OCO2)NCC(O)c1ccc(O)c(C(N)=O)c1.Cl (centres undefined) [MEDROXALOL HYDROCHLORIDE]                    =      55
9  CC(CCc1ccc2c(c1)OCO2)NCC(O)c1ccc(O)c(C(=O)O)c1.Cl (centres undefined)                    =     0.8
